These data points were gathered from patent US10927104B2.

- Tested on: IL-1β
- Experiment: PBMC assay, LPS-induced IL-1β (Meso Scale)
- Type: cell-based
- Measurement Setup: Homo sapiens, compound at 0.1 μM, PBMCs, 100 ng/mL LPS 18-24 hrs
inhibition at 0.1 µM values, listed per item

Recorded inhibition at 0.1 µM, per entry:
O=C1CCC[C@H](N2Cc3c(OCCc4ccc(CN5CCOCC5)cc4)cccc3C2=O)C(=O)N1 [Compound 26] : 78%
Cc1cnc(Nc2ccc(OCCCNC(=O)NCc3ccc4c(c3OCc3ccc(CN5CCOCC5)cc3)CN([C@H]3CCC(=O)NC3=O)C4=O)cc2)nc1Nc1cccc(S(=O)(=O)NC(C)(C)C)c1 [Compound 23] : 35%

// below: inhibition at 0.1 µM requested for another compound
Input line: Please report the recorded inhibition at 0.1 µM for O=C1CCC[C@H](N2Cc3c(OCc4ccc(CN5CCOCC5)cc4)cc(F)cc3C2=O)C(=O)N1 [Compound 7] .
Output line: 71%
